Target: ATP-sensitive inward rectifier potassium channel 1 (Homo sapiens, UniProt P48048)
Sequence (P48048 whole entry): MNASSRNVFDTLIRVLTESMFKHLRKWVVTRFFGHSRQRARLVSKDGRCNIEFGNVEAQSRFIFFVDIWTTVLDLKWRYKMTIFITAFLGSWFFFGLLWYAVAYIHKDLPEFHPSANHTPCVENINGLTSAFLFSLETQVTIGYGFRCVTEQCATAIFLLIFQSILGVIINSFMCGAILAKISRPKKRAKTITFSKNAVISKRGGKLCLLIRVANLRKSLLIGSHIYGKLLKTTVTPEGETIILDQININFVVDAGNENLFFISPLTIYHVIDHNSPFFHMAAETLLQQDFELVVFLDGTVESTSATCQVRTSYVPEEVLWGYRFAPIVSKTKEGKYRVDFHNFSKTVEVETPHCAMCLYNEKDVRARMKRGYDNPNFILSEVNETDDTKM
Test: Inhibition of human ROMK expressed in CHO cells by electrophysiology method
Format: cell-based
pIC50: −log10 of the molar value.
measuredQuantity: pIC50

structurestring=Cc1c([C@@H](O)CN2CCC3(CC2)CCN(c2ccc(S(C)(=O)=O)cn2)C3)ccc2c1COC2=O recordedvalue=7.54
structurestring=Cc1c([C@@H](O)CN2CCC3(CC2)CC(=O)N(c2cnc(S(C)(=O)=O)cn2)C3)ccc2c1COC2=O recordedvalue=7.47
structurestring=Cc1c([C@@H](O)CN2CCC3(CC2)CCN(c2ccc(S(C)(=O)=O)nc2)C3)ccc2c1COC2=O recordedvalue=7.30
structurestring=Cc1c([C@@H](O)CN2CCC3(CC2)CCN(c2cnc(S(C)(=O)=O)cn2)C3)ccc2c1COC2=O recordedvalue=7.43
structurestring=Cc1c([C@@H](O)CN2CCC3(CC2)CC(=O)N(c2ccc(S(C)(=O)=O)cn2)C3)ccc2c1COC2=O recordedvalue=7.37
